# Tested On: T1, 4Ig-B7H3 fused to mouse Fc (B7H3-mFc) (human, UniProt Q5ZPR3 29-466, limits assumed, biotinylated on primary amines (NHS-biotin) in the experiment of paragraph 316)
# T1 construct: Expressed in DG44 CHO cells; also called 4Ig-B7H3-Fc; 4Ig-B7H3-mFc; not shown: mouse Fc
# T1 sequence (looked up): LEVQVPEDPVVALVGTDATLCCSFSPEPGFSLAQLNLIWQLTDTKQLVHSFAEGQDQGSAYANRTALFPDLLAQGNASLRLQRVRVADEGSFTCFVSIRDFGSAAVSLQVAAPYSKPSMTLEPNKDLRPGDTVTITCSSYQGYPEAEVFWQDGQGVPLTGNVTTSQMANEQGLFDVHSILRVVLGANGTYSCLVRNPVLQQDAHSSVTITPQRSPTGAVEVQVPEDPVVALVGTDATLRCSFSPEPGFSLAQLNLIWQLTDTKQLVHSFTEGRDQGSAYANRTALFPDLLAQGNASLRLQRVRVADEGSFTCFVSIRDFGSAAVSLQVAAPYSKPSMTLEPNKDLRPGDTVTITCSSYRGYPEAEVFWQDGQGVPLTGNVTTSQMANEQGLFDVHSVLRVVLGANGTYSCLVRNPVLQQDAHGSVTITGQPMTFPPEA
# Assay Overview: SPR, IgG on 4Ig-B7H3-Fc
Kindly supply the reported koff values for the records listed here.
Number plus unit, in that order.

Look over these answered cases.
>>> test_result("hu8H9-H1L2 IgG1 (antibody, V domains shown) VH: QVQLVQSGAEVKKPGASVKLSCKASGYTFTNYDINWVRQAPGQGLEWIGWIFPGDGSTQYNEKFKGKATLTTDTSTSTAYMELSSLRSEDTAVYFCARQTTATWFAYWGQGTLVTVSS VL: EIVMTQSPATLSVSPGERVTLSCRASQSISDYLHWYQQKSHESPRLLIKYASQSISGIPARFSGSGSGTEFTLTINSVEPEDVGVYYCQNGHSFPLTFGQGTKLEIKR")
"0.0239 s⁻¹"
>>> test_result("mouse/human chimeric 8H9 (ch8H9) IgG1 (antibody, V domains shown) VH: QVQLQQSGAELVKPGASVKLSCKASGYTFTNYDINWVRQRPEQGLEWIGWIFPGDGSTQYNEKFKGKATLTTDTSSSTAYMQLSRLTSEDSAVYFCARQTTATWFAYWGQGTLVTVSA VL: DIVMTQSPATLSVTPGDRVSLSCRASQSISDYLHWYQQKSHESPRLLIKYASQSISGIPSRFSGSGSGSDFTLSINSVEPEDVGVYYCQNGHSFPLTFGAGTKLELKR")
"5.49e-05 s⁻¹"
>>> test_result("hu8H9 3.1 IgG1 (antibody, V domains shown, also called clone 3.1) VH: QVQLVQSGAEVVKPGASVKLSCKTSGYTFTNYDINWVRQRPGQGLEWIGWIFPGDDSTQYNEKFKGKATLTTDTSTSTAYMELSSLRSEDTAVYFCARQTTGTWFAYWGQGTLVTVSS VL: EIVMTQSPATLSVSPGERVTLSCRASQSISDYLYWYQQKSHESPRLLIKYASQSISGIPARFSGSGSGSEFTLTINSVEPEDVGVYYCQNGHSFPLTFGQGTKLELKR")
"0.000114 s⁻¹"
>>> test_result("hu8H9 5.1 IgG1 (antibody, V domains shown, also called clone 5.1) VH: QVQLVQSGAEVVKPGASVKVSCKTSGYTFTNYDINWVRQRPGQGLEWIGWIFPGDDSTQYNEKFKGRVTMTTDTSTSTVYMELSSLRSEDTAVYFCARQTTGTWFAYWGQGTLVTVSS VL: EIVMTQSPATLSVSPGERVTLSCRASQSISDYLYWYQQKSHQAPRLLIKYASQSISGIPARFSGSGSGSEFTLTISSLQPEDFGVYYCQNGHSFPLTFGQGTKLELKR")
"7.08e-05 s⁻¹"

Name the recorded koff of the binder listed here: hu8H9 H3L3 IgG1 (antibody, V domains shown) VH: QVQLVQSGAEVVKPGASVKLSCKASGYTFTNYDINWVRQRPEQGLEWIGWIFPGDGSTQYNEKFKGKATLTTDTSTSTAYMELSSLRSEDTAVYFCARQTTATWFAYWGQGTLVTVSS VL: EIVMTQSPATLSVSPGERVSLSCRASQSISDYLHWYQQKSHESPRLLIKYASQSISGIPARFSGSGSGSEFTLTINSVEPEDVGVYYCQNGHSFPLTFGQGTKLELKR
0.0452 s⁻¹
